System: MCF7
Experiment: Antiproliferative activity against human MCF7 cells by SRB assay
Type: functional
readoutType: GI50

INSERT INTO measurements (compound, testedon, readouttype, reading) VALUES
  ('O=C1c2ccccc2-c2c1c1ccccc1c(=O)n2C[C@H](O)CO', 'MCF7', 'GI50', '4900 nM'),
  ('O=C1c2ccccc2-c2c1c1ccccc1c(=O)n2C[C@@H](O)CO', 'MCF7', 'GI50', '3040 nM'),
  ('CC[C@@]1(O)C(=O)OCc2c1cc1n(c2=O)Cc2cc3ccccc3nc2-1', 'MCF7', 'GI50', '10 nM'),
  ('O=C1c2ccccc2-c2c1c1ccccc1c(=O)n2C[C@H](O)[C@H](O)[C@H](O)CO', 'MCF7', 'GI50', '1380 nM'),
  ('NCC(O)Cn1c2c(c3ccccc3c1=O)C(=O)c1ccccc1-2 (racemic)', 'MCF7', 'GI50', '198 nM'),
  ('COc1cc2c3c(n(CCCn4ccnc4)c(=O)c2cc1OC)-c1cc2c(cc1C3=O)OCO2', 'MCF7', 'GI50', '10 nM'),
  ('O=C1c2ccccc2-c2c1c1ccccc1c(=O)n2C[C@H](O)[C@@H](O)[C@H](O)CO', 'MCF7', 'GI50', '1740 nM');

* * *

Tested on: SF-539
Test: Antiproliferative activity against human SF539 cells by SRB assay
Format: functional
readoutType: GI50 (µM)

INSERT INTO measurements (compound, measurementunit, reading) VALUES
  ('NCC(O)Cn1c2c(c3ccccc3c1=O)C(=O)c1ccccc1-2 (racemic)', 'µM', 0.344),
  ('O=C1c2ccccc2-c2c1c1ccccc1c(=O)n2C[C@@H](O)CO', 'µM', 5.72),
  ('C[C@@H](O)Cn1c2c(c3ccccc3c1=O)C(=O)c1ccccc1-2', 'µM', 6.31),
  ('O=C1c2ccccc2-c2c1c1ccccc1c(=O)n2C[C@H](O)[C@@H](O)[C@H](O)CO', 'µM', 7.94),
  ('CC(CO)n1c2c(c3ccccc3c1=O)C(=O)c1ccccc1-2 (racemic)', 'µM', 14.4),
  ('O=C1c2ccccc2-c2c1c1ccc([N+](=O)[O-])cc1c(=O)n2C[C@H](O)[C@@H](O)[C@H](O)[C@H](O)CO', 'µM', 2.61),
  ('O=C1c2ccccc2-c2c1c1ccccc1c(=O)n2C[C@H](O)[C@H](O)[C@H](O)[C@H](O)CO', 'µM', 5.75),
  ('O=C1c2ccccc2-c2c1c1ccccc1c(=O)n2C[C@@H](O)[C@H](O)[C@H](O)CO', 'µM', 7.59);

* * *

Test system: MCF7
Assay: Antiproliferative activity against human MCF7 cells by SRB assay
Format: functional
Mark 1 only for GI50 values smaller than 4 µM; exact matches and larger values are -1.

INSERT INTO results (compound, classlabel) VALUES
  ('O=C1c2ccccc2-c2c1c1ccccc1c(=O)n2C[C@@H](O)[C@@H](O)[C@H](O)CO', 1),
  ('O=C(CO)Cn1c2c(c3ccccc3c1=O)C(=O)c1ccccc1-2', -1),
  ('CC(CO)n1c2c(c3ccccc3c1=O)C(=O)c1ccccc1-2 (racemic)', -1),
  ('O=C1c2ccccc2-c2c1c1ccccc1c(=O)n2CC(O)CO (racemic)', 1),
  ('COc1cc2c3c(n(C[C@H](O)CO)c(=O)c2cc1OC)-c1ccccc1C3=O', 1);
